Origin of the recorded values: paper PMC9964281

- subject_of_test: UniProt Q9NZQ7
- Sequence (Q9NZQ7 18-239): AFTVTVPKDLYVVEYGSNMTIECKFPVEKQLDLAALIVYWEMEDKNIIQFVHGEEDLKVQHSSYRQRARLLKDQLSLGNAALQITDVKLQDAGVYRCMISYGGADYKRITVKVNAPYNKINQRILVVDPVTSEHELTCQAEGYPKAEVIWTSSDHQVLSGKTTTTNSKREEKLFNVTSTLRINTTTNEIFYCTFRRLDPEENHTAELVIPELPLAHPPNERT
endpoint: pKd
Worth noting: pKd values are minus log10 of concentrations stated in mol/L.

Field pKd (system: UniProt Q9NZQ7) for entry "Clc1ccc(COc2ccc(CNCc3ccncc3)cc2)cc1" = 4.32
